- SYSTEM_TESTED: hALPK1-V1092A (Homo sapiens (Human), UniProt Q96QP1, V1092A)
- Sequence (Q96QP1 whole entry V1092A): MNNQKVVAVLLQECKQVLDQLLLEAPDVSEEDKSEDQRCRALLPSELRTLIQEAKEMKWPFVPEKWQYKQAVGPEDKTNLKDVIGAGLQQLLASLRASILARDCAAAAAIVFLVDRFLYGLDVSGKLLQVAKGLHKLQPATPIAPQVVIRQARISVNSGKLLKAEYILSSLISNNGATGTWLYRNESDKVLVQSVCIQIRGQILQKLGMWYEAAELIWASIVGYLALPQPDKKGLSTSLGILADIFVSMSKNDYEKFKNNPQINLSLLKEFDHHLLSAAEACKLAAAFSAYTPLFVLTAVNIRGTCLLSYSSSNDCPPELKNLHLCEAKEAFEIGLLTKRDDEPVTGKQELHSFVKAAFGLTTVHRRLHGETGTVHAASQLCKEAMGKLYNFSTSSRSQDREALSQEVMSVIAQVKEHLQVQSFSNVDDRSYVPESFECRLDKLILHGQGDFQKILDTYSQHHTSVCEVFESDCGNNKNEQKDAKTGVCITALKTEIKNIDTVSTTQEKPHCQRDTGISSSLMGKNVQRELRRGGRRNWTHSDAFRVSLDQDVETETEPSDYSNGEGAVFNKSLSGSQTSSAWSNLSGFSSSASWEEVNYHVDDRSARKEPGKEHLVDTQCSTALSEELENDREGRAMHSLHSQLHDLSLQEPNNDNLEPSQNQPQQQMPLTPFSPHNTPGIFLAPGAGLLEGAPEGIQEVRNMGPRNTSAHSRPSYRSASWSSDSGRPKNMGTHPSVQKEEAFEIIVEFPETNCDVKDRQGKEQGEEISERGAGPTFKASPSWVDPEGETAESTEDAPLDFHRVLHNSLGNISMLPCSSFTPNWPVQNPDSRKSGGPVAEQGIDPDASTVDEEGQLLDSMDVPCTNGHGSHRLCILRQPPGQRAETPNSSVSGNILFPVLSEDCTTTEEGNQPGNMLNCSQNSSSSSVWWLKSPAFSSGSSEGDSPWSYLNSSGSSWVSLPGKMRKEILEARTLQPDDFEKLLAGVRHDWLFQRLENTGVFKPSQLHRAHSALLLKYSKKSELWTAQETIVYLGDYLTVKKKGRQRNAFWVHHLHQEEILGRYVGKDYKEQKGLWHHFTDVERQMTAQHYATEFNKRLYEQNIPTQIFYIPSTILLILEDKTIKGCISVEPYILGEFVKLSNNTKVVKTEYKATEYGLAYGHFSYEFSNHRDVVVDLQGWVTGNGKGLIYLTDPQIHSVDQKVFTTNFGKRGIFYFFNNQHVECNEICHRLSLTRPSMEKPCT
- MEASUREMENT_DESCRIPTION: cell-based
Provide the recorded log10 of IC50 for the entries that follow.
// stored as log10 of IC50 expressed in nM

Documented log10 of IC50 of CC(c1ccccc1)(c1ccc(Cl)cc1)c1csc(NC(=O)c2c(F)cc(N3CCNCC3)cc2F)n1 (centres unmarked) : 3.65

Documented log10 of IC50 of C#C[C@@](C)(c1ccc(Cl)cc1)c1csc(NC(=O)c2ccc(N3CCNCC3)cc2)n1 (stereo in doubt) : 2.33

Documented log10 of IC50 of C#C[C@@](C)(c1ccc(Cl)cc1)c1csc(NC(=O)NCC(C)O)n1 (stereo in doubt) [Example A317] : 3.29

Documented log10 of IC50 of C#C[C@](C)(c1ccc(Cl)cc1)c1csc(NC(=O)c2c(F)ccc(N3CCNCC3)c2F)n1 (stereo in doubt) : 4.11

Documented log10 of IC50 of C#C[C@](C)(c1ccc(Cl)cc1)c1csc(NC(=O)c2ccc(N3CCNCC3)cc2)n1 (stereo in doubt) : 4.43

Documented log10 of IC50 of C#C[C@@](C)(c1ccc(OC)cc1)c1csc(NC(=O)NCCS(N)(=O)=O)n1 : 3.06

Documented log10 of IC50 of C#C[C@@](C)(c1ccc(Cl)cc1)c1csc(NC(=O)NCC(C)O)n1 (stereo in doubt) [Example A319] : 3.90

Documented log10 of IC50 of C#C[C@](C)(c1ccc(C)cc1)c1csc(NC(=O)c2c(F)cc(N3CCNCC3)cc2F)n1 (stereo in doubt) : 1.83

Documented log10 of IC50 of C#CC(C)(c1ccc(Cl)cc1)c1csc(NC(=O)NCC(O)CO)n1 (centres unmarked) : 3.68

Documented log10 of IC50 of C#CC(C)(c1ccc(OC)cc1)c1csc(NC(=O)c2c(F)cc(N3CCNCC3CO)cc2F)n1 (centres unmarked) : 2.63

Documented log10 of IC50 of COC[C@@](C)(c1ccccc1)c1csc(NC(=O)c2c(F)cc(N3CCNCC3)cc2F)n1 : 3.28

Documented log10 of IC50 of COCC(C)(c1ccc(Cl)cc1)c1csc(NC(=O)c2c(F)cc(N3CCNCC3)cc2F)n1 (centres unmarked) : 3.20

Documented log10 of IC50 of C#Cc1ccc(C(C)(C#C)c2csc(NC(=O)c3c(F)cc(N4CCNCC4)cc3F)n2)cc1 (centres unmarked) : 2.35

Documented log10 of IC50 of C#C[C@@](C)(c1ccc(Cl)cc1)c1csc(NC(=O)N2CC(CN3CCNCC3)C2)n1 (stereo in doubt) : 2.74

Documented log10 of IC50 of C#C[C@](C)(c1ccc(Cl)cc1)c1csc(NC(=O)NC(C)CO)n1 (stereo in doubt) [Example A314] : 3.60

Documented log10 of IC50 of C#C[C@](C)(c1ccc(Cl)cc1)c1csc(NC(=O)NCC(C)O)n1 (stereo in doubt) : 4.21

Documented log10 of IC50 of C#C[C@@](C)(c1ccc(Cl)cc1)c1csc(NC(=O)c2c(F)ccc(N3CCNCC3)c2F)n1 (stereo in doubt) : 2.11

Documented log10 of IC50 of C#C[C@@](C)(c1ccc(Cl)cc1)c1csc(NC(N)=O)n1 : 2.86

Documented log10 of IC50 of C#CC(C)(c1ccc(Cl)cc1)c1csc(NC(=O)N2CC(N3CCNCC3)C2)n1 (centres unmarked) : 2.76

Documented log10 of IC50 of C#C[C@](C)(c1ccc(F)cc1)c1csc(NC(=O)c2c(F)cc(N3CCNCC3)cc2F)n1 (stereo in doubt) : 2.44

Documented log10 of IC50 of C#C[C@](C)(c1ccc(Cl)c(F)c1)c1csc(NC(=O)c2c(F)cc(N3CCNCC3)cc2F)n1 (stereo in doubt) : 3.92

Documented log10 of IC50 of C#C[C@@](C)(c1ccc(F)cc1)c1csc(NC(=O)c2c(F)cc(N3CCNCC3)cc2F)n1 (stereo in doubt) : 1.83

Documented log10 of IC50 of C#C[C@@](C)(c1ccc(Cl)cc1)c1csc(NC(=O)NCCC(C)(C)O)n1 : 4.07

Documented log10 of IC50 of C#C[C@](C)(c1ccc(OC)cc1)c1csc(NC(=O)NCCS(N)(=O)=O)n1 : 3.28

Documented log10 of IC50 of C#C[C@@](C)(c1ccc(Cl)cc1)c1csc(NC(=O)NC(C)CO)n1 (stereo in doubt) [Example A313] : 4.01

Documented log10 of IC50 of CC#CC(C)(c1ccc(Cl)cc1)c1csc(NC(=O)c2c(F)cc(N3CCNCC3)cc2F)n1 (centres unmarked) : 2.98

Documented log10 of IC50 of C#C[C@@](C)(c1ccc(Cl)cc1)c1csc(NC(=O)NCCO)n1 : 3.19

Documented log10 of IC50 of C#C[C@@](C)(c1ccc(Cl)c(F)c1)c1csc(NC(=O)c2c(F)cc(N3CCNCC3)cc2F)n1 (stereo in doubt) : 2.55

Documented log10 of IC50 of C#C[C@](C)(c1ccc(Cl)cc1)c1csc(NC(=O)NC(C)CO)n1 (stereo in doubt) [Example A315] : 3.44
